# Kd (C6.5)/Kd (mut) listing for each entry below
- study-target: T1, c-erbB-2 ECD with a Ser-Gly-His6 C-terminal fusion (UniProt P04626 23-652)
- T1 construct: extracellular domain; Expressed from CHO cells, IMAC purified; coupled to a CM5 chip, coated on plates, or biotinylated with NHS-LC-biotin; also called c-erbB-2 extracellular domain; biotinylated c-erbB-2 ECD
- protocol: SPR BIAcore
Lab note: record the figure alone, no unit after it.

[
  {
    "binder": "C6-B1D5 (scFv, Combined B1 and D5 mutations on C6ML3-9) scFv: QVQLLQSGAELKKPGESLKISCKGSGYSFTSYWIAWVRQMPGKGLEYMGLIYPGDSDTKYSPSFQGQVTISVDKSVSTAYLQWSSLKPSDSAVYFCARHDVGYCTDRTCAKWPEWMQMWGQGTLVTVSSGGGGSGGGGSGGGGSQSVLTQPPSVSAAPGQKVTISCSGSSSNIGNNYVSWYQQLPGTAPKLLIYGHTNRPAGVPDRFSGSKSGTSASLAISGFRSEDEADYYCASWDYTLSGWVFGGGTKLTVLG",
    "endpoint-result": 457
  }
]

We now examine a further binder.
Input line: For the binder C6-B47D5 (scFv, Combined B47 and D5 mutations on C6ML3-9) scFv: QVQLLQSGAELKKPGESLKISCKGSGYSFTSYWIAWVRQMPGKGLEYMGLIYPGDSDTKYSPSFQGQVTISVDKSVSTAYLQWSSLKPSDSAVYFCARHDVGYCTDRSCAKWPEWMQMWGQGTLVTVSSGGGGSGGGGSGGGGSQSVLTQPPSVSAAPGQKVTISCSGSSSNIGNNYVSWYQQLPGTAPKLLIYGHTNRPAGVPDRFSGSKSGTSASLAISGFRSEDEADYYCASWDYTLSGWVFGGGTKLTVLG , what Kd (C6.5)/Kd (mut) is on record?
Output line: 254

This collection of values is drawn from patent US6512097.
